test: Low temperature CW-EPR of Cu(II) binding to Ctr1 N-terminal peptides in KPi buffer; details: peptide:Cu(II) molar ratio 1:0.6; 130 K
property: percentage of Cu(II) bound to peptide (species other than 4O coordination) (%)

# polymer_sequence, reported_value
rows = [
    ("MDHSAHMGMSYMDS (Pep4 peptide amino acid sequence)", 80),
    ("MDASHHMGMSYMDS (Pep3 peptide amino acid sequence)", 70),
    ("MDHSHAMGMSYMDS (Pep5 peptide amino acid sequence)", 75),
    ("MDHSHHMAMSYMDS (Pep2 peptide amino acid sequence)", 80),
]

====

experiment: Low temperature CW-EPR of Cu(II) binding to Ctr1 N-terminal peptides in KPi buffer; details: peptide:Cu(II) molar ratio 1:2; 130 K
property: percentage of Cu(II) bound to peptide (species other than 4O coordination) (%)

# polymer_sequence, reported_value
rows = [
    ("MDHSHHMAMSYMDS (Pep2 peptide amino acid sequence)", 62),
    ("MDHSHHMGMSYMDS (Pep1 peptide amino acid sequence)", 70),
    ("MDHSHAMGMSYMDS (Pep5 peptide amino acid sequence)", 40),
]

I. MDHSAHMGMSYMDS (Pep4 peptide amino acid sequence)
II. MDASHHMGMSYMDS (Pep3 peptide amino acid sequence)
Qu. Between I and II , whose measured percentage of Cu(II) bound to peptide (species other than 4O coordination) reads higher? Identify your pick by its label.
Ans. I
